B1: mRNA-splicing (parent)
chain: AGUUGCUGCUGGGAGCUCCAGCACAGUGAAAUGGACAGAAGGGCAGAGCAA

# Variants of: B1
# Assay summary: exon inclusion enrichment index; higher = more inclusion; WT1 exon 5 minigene, HEK293
Could you label it label 1 if measured exon inclusion enrichment index is 1 or higher, and label 0 otherwise?

See these solved cases before continuing.
| Residue codes | Class assignment |
| --- | --- |
| AGUUCGCGCCGGGAGCUCCAGCACAGUGAAAUGGACAGACUGGCAGAGCAA [G5C C6G U7C U10C A40C G41U] | label 1 |
| AGUUCACAUAGGGAGCUCCAGCACAGUGAAAUGGACAGAAGGGCAGAGCAA [G5C C6A U7C G8A C9U U10A] | label 0 |
| AGUUCUUCUCGGGAGCUCCACUACAGUGAAAUGGACAGAAGGGCAGAGCAA [G5C C6U G8C C9U U10C G21C C22U] | label 1 |
| AGUUAUAUAUGCCAGCUCCAGCACAGUGAAAUGGACAGAAGGGCAGAGCAA [G5A C6U U7A G8U C9A G12C G13C] | label 0 |
| AGUUGACGACGGGAGCUCCAGUACAGUGAAAUGGACAGAAGGGCAGAGCAA [C6A U7C C9A U10C C22U] | label 1 |

Attention now shifts to the item below.
Query string: Please check the record AGUUGCUGCUGGGAGCUCCAGCACAGUAAAAUGGACAGAAGGGCAGAGCAA [G28A] and state if its exon inclusion enrichment index is at or above 1.
Result string: label 0
